Molecular target: Fuc(a1-2)Gal(b1-4)GlcNAc(b1-3)[Fuc(a1-3)[Gal(b1-4)]GlcNAc(b1-6)]Gal(b1-4)Glc
Assay: glycan array binding signal (z-score within array); higher = stronger binding
Conditions: glycan notation: IUPAC condensed, linker removed
Shown is part of a subset that was picked to be rich in the strongest signals.
assay-readout: glycan array binding signal (z-score)
The answer should be written as a number, with no unit following it.

glycan array binding signal (z-score) reported for this binder AT5G24760(45) (Arabidopsis thaliana), Q8LEB2 (protein) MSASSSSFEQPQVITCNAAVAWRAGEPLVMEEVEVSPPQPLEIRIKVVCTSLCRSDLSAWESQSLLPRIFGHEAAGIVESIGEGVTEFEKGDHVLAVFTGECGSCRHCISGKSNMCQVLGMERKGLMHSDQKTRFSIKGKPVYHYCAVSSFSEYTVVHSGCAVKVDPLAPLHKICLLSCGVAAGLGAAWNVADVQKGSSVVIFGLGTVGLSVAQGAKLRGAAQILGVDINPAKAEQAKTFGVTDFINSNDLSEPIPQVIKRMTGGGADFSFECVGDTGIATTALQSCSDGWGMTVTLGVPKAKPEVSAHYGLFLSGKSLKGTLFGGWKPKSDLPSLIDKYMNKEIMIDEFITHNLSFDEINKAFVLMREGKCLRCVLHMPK : 0.166

Cited source for all entries: the supplement of paper PMC8728848
